These data points were gathered from patent US20200199213A1.

# STUDY_TARGET: T1, human ANGPTL8 (human, UniProt Q6UXH0 22-198)
# T1 construct: Biotinylated in the ELISA assays; also called hANGPTL8; free ANGPTL8
# T1 sequence: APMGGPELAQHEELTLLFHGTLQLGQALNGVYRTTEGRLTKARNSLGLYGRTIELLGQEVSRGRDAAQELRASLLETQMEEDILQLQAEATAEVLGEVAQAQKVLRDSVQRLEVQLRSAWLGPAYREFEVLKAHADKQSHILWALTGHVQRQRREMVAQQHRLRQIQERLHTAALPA
# ASSAY_PROCEDURE: ELISA; Ab captured by anti-human Fc; biotinylated antigen at 33.3 nM
RECORDED_METRIC: OD at 560 nm (OD 560 nm)
All answers are understood in OD 560 nm, so give the number only.

Would you please look over these solved cases?
1) anti-ANGPTL3/8 complex Ab having a LC of SEQ ID NO:5 and a HC of SEQ ID NO:6 (antibody, human IgG4 S228P, kappa, F234A L235A, V domains shown, In the ELISA assays tested as IgG from CHO supernatants; also called the Ab) VH: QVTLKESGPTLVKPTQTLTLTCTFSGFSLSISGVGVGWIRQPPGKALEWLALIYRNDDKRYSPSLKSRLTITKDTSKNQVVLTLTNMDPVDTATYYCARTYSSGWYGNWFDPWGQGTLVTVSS VL: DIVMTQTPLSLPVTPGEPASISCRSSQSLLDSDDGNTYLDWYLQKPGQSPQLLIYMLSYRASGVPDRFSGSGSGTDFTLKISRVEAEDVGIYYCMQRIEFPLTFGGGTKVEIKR : 0.05
2) Ab with LC variant having a D31S mutation (SEQ ID NO:21) and a HC of SEQ ID NO:6 (antibody, human IgG4 S228P, kappa, F234A L235A, V domains shown, also called D31S Variant Ab; D31S Ab) VH: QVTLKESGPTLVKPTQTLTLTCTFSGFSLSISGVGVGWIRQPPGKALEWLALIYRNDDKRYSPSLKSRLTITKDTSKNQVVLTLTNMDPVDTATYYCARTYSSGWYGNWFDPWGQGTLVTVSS VL: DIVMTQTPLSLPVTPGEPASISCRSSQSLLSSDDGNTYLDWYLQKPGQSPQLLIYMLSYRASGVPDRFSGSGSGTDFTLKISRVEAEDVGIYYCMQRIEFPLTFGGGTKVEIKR : 0.063

### Prompt For Ab with LC variant having a E99Q mutation (SEQ ID NO:25) and a HC of SEQ ID NO:6 (antibody, human IgG4 S228P, kappa, F234A L235A, V domains shown, also called E99Q Variant Ab; E99Q Ab) VH: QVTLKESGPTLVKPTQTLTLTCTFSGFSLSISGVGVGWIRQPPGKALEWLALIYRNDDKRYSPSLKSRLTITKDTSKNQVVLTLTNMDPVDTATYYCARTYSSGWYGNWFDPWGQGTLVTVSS VL: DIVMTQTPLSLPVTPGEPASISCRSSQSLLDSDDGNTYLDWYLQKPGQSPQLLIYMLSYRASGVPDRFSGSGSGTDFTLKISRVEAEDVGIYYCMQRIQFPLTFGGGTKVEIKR , what is its reported OD at 560 nm?
### Response 0.063
